B1: TPR 5TU (parent)
chain: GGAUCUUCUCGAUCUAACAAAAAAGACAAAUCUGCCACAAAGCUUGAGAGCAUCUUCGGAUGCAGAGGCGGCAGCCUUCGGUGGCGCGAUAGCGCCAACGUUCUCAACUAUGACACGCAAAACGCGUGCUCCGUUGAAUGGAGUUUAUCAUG

Variants of: B1
Assay: polymerase ribozyme fitness, log enrichment relative to wild type (log ratio); higher = more active; in vitro selection for triplet polymerase activity
Variants at the floor of the assay were thinned out.
reported-metric: polymerase ribozyme fitness (log ratio)

> print(dat)
                         variant.designation                          reported.metric  qualifier.sign  obs.value
 1                                  C8G U55A  polymerase ribozyme fitness (log ratio)               =      -2.91
 2                     G48A G88A C105G A115U  polymerase ribozyme fitness (log ratio)               =      -3.86
 3                     A40C C96U U144G U151G  polymerase ribozyme fitness (log ratio)               =      -3.73
 4                          A66G A106G U139A  polymerase ribozyme fitness (log ratio)               ≤       -4.2
 5                                  U7G C85A  polymerase ribozyme fitness (log ratio)               =      -3.43
 6  U9A A12G C14U A23U A40C C76G G86C U90C C118A C131G  polymerase ribozyme fitness (log ratio)               ≤       -4.2
 7  C10G U44G U56G C57U A66C C87U A106G A142U  polymerase ribozyme fitness (log ratio)               ≤       -4.2
 8                            C14U A19U U55A  polymerase ribozyme fitness (log ratio)               =       -1.9
 9    A40U C76A C79A C114U G143U U146C U148A  polymerase ribozyme fitness (log ratio)               ≤       -4.2
10             G11A A17G U31A U53G C54U A64G  polymerase ribozyme fitness (log ratio)               ≤       -4.2
11            A17U A39G G50C A52C C96U C118U  polymerase ribozyme fitness (log ratio)               ≤       -4.2
12            U9A C32G C54A G86C U109G G136A  polymerase ribozyme fitness (log ratio)               ≤       -4.2
13                                U53A A115U  polymerase ribozyme fitness (log ratio)               =      -2.87
14                                A97G U130G  polymerase ribozyme fitness (log ratio)               =      -2.77
15                           A22G G70U C118U  polymerase ribozyme fitness (log ratio)               =      -3.77
16                  U6A A24U G81U C85G G140U  polymerase ribozyme fitness (log ratio)               ≤       -4.2
17                A29G A30U C85A A107U C118G  polymerase ribozyme fitness (log ratio)               ≤       -4.2
18                                G80U A110G  polymerase ribozyme fitness (log ratio)               =      -4.05
19                      G58A U61A G88C G133U  polymerase ribozyme fitness (log ratio)               ≤       -4.2
20     A12G C87G G88U C96U C105A C108G C116U  polymerase ribozyme fitness (log ratio)               ≤       -4.2
21                           U31C C99G C103U  polymerase ribozyme fitness (log ratio)               =     -0.958
22                                      G86A  polymerase ribozyme fitness (log ratio)               =     -0.877
